targetSystem: SARS-COV-2 RBD extracellular domain expressed with a C-terminal mouse IgG2a (SARS-CoV-2)
Each item that follows carries a reported koff.

binder: mAb10935 (antibody, V domains shown) VH: EVQLVESGGGLVQPGGSLRLSCAASGFTVSSNYMSWVRQAPGKGLEWVSLIYSGGSTYYADSVKGRFTISRHNSKNTLYLQMNSLRSEDTAVYYCARVPLGDYYYGMDVWGQGTTVTVSS VL: DIQMTQSPSSLSASVGDRVTITCQASQDINKYLNWYQQKPGKAPKLLIYDASNLETGVPSRFSGSGSGTDFTFTISSLQPEDIATYYCQQSDNLPLTFGGGTKVEIKR
koff: ≤ 1e-05 s⁻¹
--
binder: mAb10971 (antibody, V domains shown) VH: EVQLVESGGGLIQPGGSLRLSCAASGVTVSSNYMSWVRQAPGKGLEWVSVIYSGGSTFYSDSVKGRFSISRDNSKNTLYLQMNSLRAEDTAVYYCARDLYYYGMDVWGQGTTVTVSS VL: DIQLTQSPSFLSASVGDRVTITCRASQGISTYLAWYQQKPGKAPKLLIYAASTLQSGVPSRFSGSGSGTEFTLTISSLQPEDFATYYCQQLDSYPGLTFGGGTKVEIKR
koff: ≤ 1e-05 s⁻¹
--
binder: mAb10939 (antibody, V domains shown) VH: EVQLVESGGGLVQPGGSLRLSCAASGLTVSSNYMNWVRQVPGKGLEWVSVIYSGGSKFYVDSVKGRFTISRHNSKNTLYLQMNSLRPEDTAVYYCTRDAQYYGMDVWGQGTTVTVSS VL: DIQMTQSPSSLSASVGDRVTITCRASQSISTYLHWYQQKPGEAPKLLIYAASSLQSGVPSRFSGSGSGTDFTLTISSLQPEDFATYYCQQSYSTPPEIFGQGTKLEIKR
koff: 1.15e-05 s⁻¹
